- Measured target: T1, p73 DBD S139F (human, UniProt O15350 115-312, S139F)
- T1 sequence: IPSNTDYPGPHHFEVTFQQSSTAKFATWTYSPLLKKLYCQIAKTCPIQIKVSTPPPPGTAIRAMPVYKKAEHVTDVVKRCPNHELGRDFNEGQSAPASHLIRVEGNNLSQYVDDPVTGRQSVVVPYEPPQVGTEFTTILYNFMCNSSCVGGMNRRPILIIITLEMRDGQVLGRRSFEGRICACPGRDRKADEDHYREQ
- Assay overview: fluorescence polarization; Hill 1.7 ± 0.1; FP: 50 nM fluorescein-DNA, 0-20000 nM protein, 30 min on ice then room temperature; buffer, salt and pH not stated. Crystals: 0.1 M Tris pH 8.5, 50-125 mM sodium acetate, 20-24% PEG 3350, room temperature
- Test settings: protein: recombinant; chain copies: 2; label: fluorescein; self-complementary
Property: pKd
The value called pKd is obtained by taking minus log10 of the concentration in mol/L.

pKd reading for 20mer GAACA full-site (0/4 RY) (dsDNA) DNA 1: GAACATGTTCGAACATGTTC DNA 2: GAACATGTTCGAACATGTTC : 5.35

Values were extracted from paper PMC3794606.
